- procedure_text: Antiplatelet aggregation activity against adenosine diphosphate-induced human platelet rich plasma assessed as inhibition of platelet aggregation by turbidimetric method
- Type: functional
- condition_summary: Homo sapiens, Platelet, Plasma
measured_parameter: IC50 (µM)
Write it as a number; the unit µM goes unstated.

The cases that follow already have their IC50 on record.
compound: CCCCCOC(=O)N1CCN(C(=O)[C@H](CCC(=O)O)NC(=O)c2cc(N3CCCCC3)cc(-c3ccccc3)n2)CC1
units_symbol: µM
observed_value: 16
//
compound: CCCCOC(=O)N1CCN(C(=O)[C@H](CCC(=O)O)NC(=O)c2cc(N3CCC(N4CCCC4)CC3)cc(-c3ccccc3)n2)CC1
units_symbol: µM
observed_value: 0.56
//
compound: CCCCCOC(=O)N1CCN(C(=O)[C@H](CCC(=O)O)NC(=O)c2cc(OC3CCN(C(=O)OCC)CC3)cc(-c3ccccc3)n2)CC1
units_symbol: µM
observed_value: 8.2
//
compound: CCOC(=O)N1CCN(C(=O)[C@H](CCC(=O)O)NC(=O)c2cc(OCC3CCNCC3)cc(-c3ccccc3)n2)CC1
units_symbol: µM
observed_value: 4
//
compound: CCCCOC(=O)N1CCN(C(=O)[C@H](CCC(=O)O)NC(=O)c2cc(OCCCOC)cc(-c3ccccc3)n2)CC1
units_symbol: µM
observed_value: 2.2
//
compound: CCCCCOC(=O)N1CCN(C(=O)[C@H](CCC(=O)O)NC(=O)c2cc(CCCN(CC)CC)cc(-c3ccccc3)n2)CC1
units_symbol: µM
observed_value: 1.1
//
compound: CCOC(=O)N1CCN(C(=O)[C@H](CCC(=O)O)NC(=O)c2cc(O)cc(-c3ccccc3)n2)CC1
units_symbol: µM
observed_value: 24
//
compound: CCOC(=O)N1CCN(C(=O)[C@H](CCC(=O)O)NC(=O)c2cc(N3CCC(CO)CC3)cc(-c3ccccc3)n2)CC1
units_symbol: µM
observed_value: 19

query: What IC50 value was documented for this compound, CCCCOC(=O)N1CCN(C(=O)[C@H](CCC(=O)O)NC(=O)c2cc(OC3CCCNC3)cc(-c3ccccc3)n2)CC1 (stereo not given in full) ?
result: 3.9

query: Now give it for `CCCCCOC(=O)N1CCN(C(=O)[C@H](CCC(=O)O)NC(=O)c2cc(OC(=O)N3CCCC3)cc(-c3ccccc3)n2)CC1` too.
result: 1.8

query: Now give it for `CCCCCOC(=O)N1CCN(C(=O)[C@H](CCC(=O)O)NC(=O)c2cc(OC3CCN(C)CC3)cc(-c3ccccc3)n2)CC1` too.
result: 1.8

query: Now give it for `CCCCOC(=O)N1CCN(C(=O)[C@H](CCC(=O)O)NC(=O)c2cc(O)cc(-c3ccccc3)n2)CC1` too.
result: 8.8

query: Now give it for `CCCCCOC(=O)N1CCN(C(=O)[C@H](CCC(=O)O)NC(=O)c2cc(C(=O)N3CCC(N(C)C)CC3)cc(-c3ccccc3)n2)CC1` too.
result: 0.58

---

Each record here notes measured Ki.
- system_under_test: P2Y purinoceptor 12 (Homo sapiens)
- Sequence (Q9H244 whole entry): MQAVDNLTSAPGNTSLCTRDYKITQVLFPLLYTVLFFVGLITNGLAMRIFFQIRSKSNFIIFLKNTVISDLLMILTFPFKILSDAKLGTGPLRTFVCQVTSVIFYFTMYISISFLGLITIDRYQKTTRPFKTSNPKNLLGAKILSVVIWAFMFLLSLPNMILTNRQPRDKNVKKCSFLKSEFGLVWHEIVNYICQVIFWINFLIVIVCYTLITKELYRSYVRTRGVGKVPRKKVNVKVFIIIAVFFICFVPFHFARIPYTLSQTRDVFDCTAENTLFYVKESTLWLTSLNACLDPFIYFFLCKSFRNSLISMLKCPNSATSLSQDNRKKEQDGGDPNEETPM
- procedure_text: Displacement of [33P]ADP from human recombinant P2Y12 receptor expressed in CHO cells
Answer format: value, then unit.

structure: CCCCOC(=O)N1CCN(C(=O)[C@H](CCC(=O)O)NC(=O)c2cc(OC(=O)N(C)C)cc(-c3ccccc3)n2)CC1
system_under_test: P2Y purinoceptor 12 (Homo sapiens)
Ki: 2 nM

query: What Ki value was documented for this compound, `CCCCOC(=O)N1CCN(C(=O)[C@H](CCC(=O)O)NC(=O)c2cc(OCC3CCN(C)CC3)cc(-c3ccccc3)n2)CC1` ?
result: 2.5 nM

query: Now give it for `CCCCCCOC(=O)N1CCN(C(=O)[C@H](CCC(=O)O)NC(=O)c2cc(OCCO)cc(-c3ccccc3)n2)CC1` too.
result: 18 nM

query: Now give it for `CCCCCCNC(=O)N1CCN(C(=O)[C@H](CCC(=O)O)NC(=O)c2cccc(-c3ccccc3)n2)CC1` too.
result: 54 nM

query: Now give it for `CCCCOC(=O)N1CCN(C(=O)[C@H](CCC(=O)O)NC(=O)c2cc(OC3CCOCC3)cc(-c3ccccc3)n2)CC1` too.
result: 10 nM

query: Now give it for `CCOC(=O)N1CCN(C(=O)[C@H](CCC(=O)O)NC(=O)c2cc(OCCOC)cc(-c3ccccc3)n2)CC1` too.
result: 140 nM

query: Now give it for `CCCCCOC(=O)N1CCN(C(=O)[C@H](CCC(=O)O)NC(=O)c2cc(CCC(=O)N(C)C)cc(-c3ccccc3)n2)CC1` too.
result: 2.1 nM

query: Now give it for `CCCCCOC(=O)N1CCN(C(=O)[C@H](CCC(=O)O)NC(=O)c2cc(C(=O)N(C)CCCN(C)C)cc(-c3ccccc3)n2)CC1` too.
result: 8.6 nM

query: Now give it for `CCCCOC(=O)N1CCN(C(=O)[C@H](CCC(=O)O)NC(=O)c2cc(OCC3CCN(S(=O)(=O)CC)CC3)cc(-c3ccccc3)n2)CC1` too.
result: 5.3 nM

query: Now give it for `CCCCCOC(=O)N1CCN(C(=O)[C@H](CCC(=O)O)NC(=O)c2cc(OCC3CCN(C(=O)OCC)CC3)cc(-c3ccccc3)n2)CC1` too.
result: 1.3 nM

query: Now give it for `CCOC(=O)N1CCN(C(=O)[C@H](CCC(=O)O)NC(=O)c2cc(-c3ccccc3)nc(-c3ccccc3)c2)CC1` too.
result: 484 nM

query: Now give it for `CCCCOC(=O)N1CCN(C(=O)[C@H](CCC(=O)O)NC(=O)c2cc(OCCC3CCNCC3)cc(-c3ccccc3)n2)CC1` too.
result: 3 nM

query: Now give it for `CCCCCOC(=O)N1CCN(C(=O)[C@H](CCC(=O)O)NC(=O)c2cc(CCCO)cc(-c3ccccc3)n2)CC1` too.
result: 3.8 nM

query: Now give it for `CCOC(=O)N1CCN(C(=O)[C@H](CCC(=O)O)NC(=O)c2cc(N3CCCCC3)cc(-c3ccccc3)n2)CC1` too.
result: 112 nM

query: Now give it for `O=C(O)CC[C@H](NC(=O)c1cccc(-c2ccccc2)n1)C(=O)N1CCN(C(=O)Nc2ccccc2)CC1` too.
result: 842 nM

---

- procedure_text: Volume of distribution at steady state in Sprague-Dawley rat at 2 mg/kg, iv and 5 mg/kg, po
- Assay type: ADME, organism-based
- condition_summary: in vivo, read-out: Vdss
Class (by Vd) -- category 1 (below 2 L/kg), category 2 (2 L/kg to below 7 L/kg), category 3 (7 L/kg or more)

Examples from the recorded data:
structure: CCCCCOC(=O)N1CCN(C(=O)[C@H](CCC(=O)O)NC(=O)c2cc(N3CCC(N4CCCC4)CC3)cc(-c3ccccc3)n2)CC1
classification: category 3

structure: CCCCCOC(=O)N1CCN(C(=O)[C@H](CCC(=O)O)NC(=O)c2cc(C(=O)N3CCC(OC)CC3)cc(-c3ccccc3)n2)CC1
classification: category 1

structure: CCCCCOC(=O)N1CCN(C(=O)[C@H](CCC(=O)O)NC(=O)c2cc(N3CCC(N(C)C)CC3)cc(-c3ccccc3)n2)CC1
classification: category 2

structure: CCCCCOC(=O)N1CCN(C(=O)[C@H](CCC(=O)O)NC(=O)c2cc(OCC3CCN(CCOC)CC3)cc(-c3ccccc3)n2)CC1
classification: category 3

structure: CCCCOc1cc(C(=O)N[C@@H](CCC(=O)O)C(=O)N2CCN(C(=O)OCC)CC2)nc(-c2ccccc2)c1
classification: category 2

structure: CCCCCOC(=O)N1CCN(C(=O)[C@H](CCC(=O)O)NC(=O)c2cc(C(=O)N3CCOCC3)cc(-c3ccccc3)n2)CC1
classification: category 1

query: Kindly state the category for this compound: `CCCCCOC(=O)N1CCN(C(=O)[C@H](CCC(=O)O)NC(=O)c2cc(OCC3CCNCC3)cc(-c3ccccc3)n2)CC1`
result: category 1

query: Now give it for `CCCCCOC(=O)N1CCN(C(=O)[C@H](CCC(=O)O)NC(=O)c2cc(OC(=O)N3CCCC3)cc(-c3ccccc3)n2)CC1` too.
result: category 2

---

- system_under_test: UniProtKB Q9H244
- procedure_text: Displacement of [33P]ADP from human recombinant P2Y12 receptor expressed in CHO cells
measured_parameter: Ki (nM)
Write it as a number; the unit nM goes unstated.

structure: CCCCCOC(=O)N1CCN(C(=O)[C@H](CCC(=O)O)NC(=O)c2cc(OC3CCN(CCOC)CC3)cc(-c3ccccc3)n2)CC1
units_symbol: nM
Ki: 9.9
--
structure: CCNC(=S)N1CCN(C(=O)[C@H](CCC(=O)O)NC(=O)c2cccc(-c3ccccc3)n2)CC1
units_symbol: nM
Ki: 9
--
structure: CCCCCOC(=O)N1CCN(C(=O)[C@H](CCC(=O)O)NC(=O)c2cc(C(=O)N(C)C3CCN(C)CC3)cc(-c3ccccc3)n2)CC1
units_symbol: nM
Ki: 11

Now for a further compound.
query: UniProtKB Q9H244 / Ki / `CCOC(=O)N1CCN(C(=O)[C@H](CCC(=O)O)NC(=O)c2cccc(-c3ccccc3)n2)CC1` : value?
result: 209
